Ref: paper PMC9369311

- EXPERIMENTAL TARGET: DmOctα1B receptor (Drosophila melanogaster, UniProt Q7JQF1)
- Construct: expressed in transfected cells
- Sequence (Q7JQF1 1-645): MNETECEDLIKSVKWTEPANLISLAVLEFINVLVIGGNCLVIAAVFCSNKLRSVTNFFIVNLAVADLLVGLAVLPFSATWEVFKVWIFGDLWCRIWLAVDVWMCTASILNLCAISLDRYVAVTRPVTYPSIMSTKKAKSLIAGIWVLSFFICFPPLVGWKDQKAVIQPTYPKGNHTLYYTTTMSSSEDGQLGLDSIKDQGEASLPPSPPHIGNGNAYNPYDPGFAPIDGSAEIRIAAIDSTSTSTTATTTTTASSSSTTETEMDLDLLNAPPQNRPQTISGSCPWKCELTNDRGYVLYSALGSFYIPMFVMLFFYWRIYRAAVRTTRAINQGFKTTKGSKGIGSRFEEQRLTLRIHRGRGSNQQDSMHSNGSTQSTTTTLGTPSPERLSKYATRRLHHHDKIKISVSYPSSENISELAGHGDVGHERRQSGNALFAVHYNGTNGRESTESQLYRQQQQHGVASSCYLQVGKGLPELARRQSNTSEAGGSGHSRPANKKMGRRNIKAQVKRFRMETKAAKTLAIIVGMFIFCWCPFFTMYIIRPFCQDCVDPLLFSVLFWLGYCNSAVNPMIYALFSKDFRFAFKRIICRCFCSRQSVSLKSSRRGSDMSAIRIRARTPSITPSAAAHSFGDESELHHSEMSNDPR
- EXPERIMENTAL PROTOCOL: Ca2+ fluorimetry in plate reader (96 MWP), DmOctα1B-expressing HEK293 cells
- Format: cell-based
- CONDITION PARAMETERS: DmOctα1B-GCaMP3.0 cells; 96 MWP plate reader; read-out: EC50

>  <MOLECULE>
NCC(O)c1ccc(O)cc1 (stereo not shown) [octopamine]

>  <EXPERIMENTAL TARGET>
DmOctα1B receptor (Drosophila melanogaster, UniProt Q7JQF1)

>  <EC50>
14 nM

$$$$

====

- EXPERIMENTAL TARGET: DmOctα1B receptor (Drosophila melanogaster)
- Construct: expressed in transfected cells
- EXPERIMENTAL PROTOCOL: Stopped-flow Ca2+ fluorescence measurements, DmOctα1B-expressing HEK293 cells
- Format: cell-based
- CONDITION PARAMETERS: stopped-flow; DmOctα1B-GCaMP3.0 cells; mean ± SEM
pEC50: −log10 of the molar value.
OBSERVABLE: pEC50

>  <COMPOUND>
NCC(O)c1ccc(O)cc1 (stereo not shown)

>  <MEAS VALUE>
8.77

$$$$
